Reference for the values: ChEMBL document CHEMBL5042485

# procedure_summary: Metabolic stability in mouse liver microsomes assessed as intrinsic clearance
# Format: ADME, Microsome
# recorded_conditions: read-out: CLH
outcome_measure: CLint scaled (mL/min/kg)
Please respond with the number in mL/min/kg and leave the unit unwritten.

> print(dat)
                                 mol.smiles  outcome.measure      units  result.value
1  CCc1cnc(N[C@H]2CCCNC2)nc1-c1c[nH]c2c(S(C)(=O)=O)c(C#N)ccc12     CLint scaled  mL/min/kg            89
2  CC1(C)CNC[C@@H](Nc2ncc(C(F)(F)F)c(-c3c[nH]c4ccccc34)n2)C1     CLint scaled  mL/min/kg           120
3  CC1(C)CC[C@H](Nc2ncc(C(F)(F)F)c(-c3c[nH]c4ccccc34)n2)CN1     CLint scaled  mL/min/kg           116
4  FC(F)(F)c1cnc(N[C@H]2CCCNC2)nc1-c1c[nH]c2ccccc12     CLint scaled  mL/min/kg           127

Value of CLint scaled reported for the compound N#Cc1ccc2c(-c3nc(N[C@H]4CCCNC4)ncc3C(F)(F)F)c[nH]c2c1 is 62

Data point: CC1(C)CNC[C@@H](Nc2ncc(C(F)(F)F)c(-c3c[nH]c4c(P(C)(C)=O)c(C#N)ccc34)n2)C1 ; CLint scaled = 164

The measured CLint scaled associated with CCc1cnc(N[C@H]2CCCNC2)nc1-c1c[nH]c2ccccc12 reads 107

Query Clc1cnc(N[C@H]2CCCNC2)nc1-c1c[nH]c2ccccc12 yields CLint scaled of 109

Field CLint scaled (entry Cc1noc(C)c1-c1ccc2c(-c3nc(N[C@H]4CCCNC4)ncc3C(F)(F)F)c[nH]c2c1 ) reads 150

* * *

# assay_system: CDK9/cyclin T1 (Homo sapiens)
# Sequence (O60563 whole entry): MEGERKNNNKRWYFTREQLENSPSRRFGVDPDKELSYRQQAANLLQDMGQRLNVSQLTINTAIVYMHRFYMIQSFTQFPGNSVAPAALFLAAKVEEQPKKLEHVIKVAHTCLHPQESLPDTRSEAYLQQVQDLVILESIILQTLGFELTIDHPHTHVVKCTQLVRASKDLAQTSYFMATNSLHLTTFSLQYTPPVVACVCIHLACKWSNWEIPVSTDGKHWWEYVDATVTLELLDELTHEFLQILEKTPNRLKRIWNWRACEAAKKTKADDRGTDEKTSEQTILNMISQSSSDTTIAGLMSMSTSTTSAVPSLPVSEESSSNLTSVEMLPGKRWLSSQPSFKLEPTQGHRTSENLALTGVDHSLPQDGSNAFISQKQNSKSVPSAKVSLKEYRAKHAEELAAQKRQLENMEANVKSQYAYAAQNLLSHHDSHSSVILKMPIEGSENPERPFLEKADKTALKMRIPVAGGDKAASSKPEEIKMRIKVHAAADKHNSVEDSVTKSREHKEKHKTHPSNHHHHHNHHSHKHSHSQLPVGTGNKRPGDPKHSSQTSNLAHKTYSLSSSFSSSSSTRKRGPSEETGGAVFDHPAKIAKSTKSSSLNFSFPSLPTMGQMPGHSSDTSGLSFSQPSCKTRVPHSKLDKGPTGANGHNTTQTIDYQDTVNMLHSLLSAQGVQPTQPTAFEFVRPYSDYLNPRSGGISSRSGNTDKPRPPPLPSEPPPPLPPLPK
# Sequence (P50750 whole entry): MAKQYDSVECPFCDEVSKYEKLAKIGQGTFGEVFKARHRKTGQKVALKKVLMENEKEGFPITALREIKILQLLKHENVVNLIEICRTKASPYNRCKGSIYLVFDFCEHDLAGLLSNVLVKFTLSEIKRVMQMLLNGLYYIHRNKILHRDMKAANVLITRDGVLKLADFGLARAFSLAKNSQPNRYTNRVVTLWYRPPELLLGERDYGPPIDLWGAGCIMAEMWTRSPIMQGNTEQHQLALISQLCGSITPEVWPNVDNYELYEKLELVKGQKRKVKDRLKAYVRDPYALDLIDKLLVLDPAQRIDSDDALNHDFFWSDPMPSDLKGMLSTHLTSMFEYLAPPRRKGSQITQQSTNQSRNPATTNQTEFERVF
# procedure_summary: Inhibition of CDK9/cyclin T1 (unknown origin) using 5-FAM-labeled peptide as substrate in presence of ATP by mobility shift assay
In this section we review reported IC50 values for a set of compounds.

> print(dat)
                                 mol.smiles  result.value
1  CCc1cnc(N[C@H]2CCCNC2)nc1-c1c[nH]c2ccccc12        430 nM
2  CS(=O)(=O)c1c(C#N)ccc2c(-c3nc(N[C@H]4CCCNC4)ncc3C(F)(F)F)c[nH]c12         60 nM
3  Cc1noc(C)c1-c1ccc2c(-c3nc(N[C@H]4CCCNC4)ncc3C(F)(F)F)c[nH]c2c1        138 nM
4  CC1(C)CNC[C@@H](Nc2ncc(C(F)(F)F)c(-c3c[nH]c4ccccc34)n2)C1         41 nM
5  N#Cc1ccc2c(-c3nc(N[C@H]4CCCNC4)ncc3C(F)(F)F)c[nH]c2c1         86 nM
6  Clc1cnc(N[C@H]2CCCNC2)nc1-c1c[nH]c2ccccc12         23 nM
7  CP(C)(=O)c1cccc2c(-c3nc(N[C@H]4CCCNC4)ncc3C(F)(F)F)c[nH]c12        286 nM
8  Cc1noc(C)c1-c1ccc2c(-c3nc(N[C@H]4CCCNC4)ncc3C(F)(F)F)c[nH]c2n1.Cl         90 nM

CDK9/cyclin T1 (Homo sapiens) assay, compound CC1(C)CC[C@H](Nc2ncc(C(F)(F)F)c(-c3c[nH]c4ccccc34)n2)CN1 , recorded IC50 = 71 nM

Reported CDK9/cyclin T1 (Homo sapiens) IC50 for item CS(=O)(=O)c1ccc2c(-c3nc(N[C@H]4CCCNC4)ncc3C(F)(F)F)c[nH]c2c1 was 133 nM

Query CC1(C)CNC[C@@H](Nc2ncc(C(F)(F)F)c(-c3c[nH]c4c(P(C)(C)=O)c(C#N)ccc34)n2)C1 on CDK9/cyclin T1 (Homo sapiens); IC50 returned: 572 nM

Entry FC(F)(F)c1cnc(N[C@H]2CCCNC2)nc1-c1c[nH]c2ccccc12 : IC50 on CDK9/cyclin T1 (Homo sapiens) = 21 nM

Query CS(=O)(=O)c1cccc2c(-c3nc(N[C@H]4CCCNC4)ncc3C(F)(F)F)c[nH]c12 on CDK9/cyclin T1 (Homo sapiens); IC50 returned: 32 nM

Form: item CCc1cnc(N[C@H]2CCCNC2)nc1-c1c[nH]c2c(S(C)(=O)=O)c(C#N)ccc12 ; test system CDK9/cyclin T1 (Homo sapiens); IC50: 907 nM

* * *

# procedure_summary: Cmax in BALB/c mouse at 2 mg/kg, po
# Type: ADME, organism-based
# Set-up: route oral, dose 2 mg/kg
# recorded_conditions: in vivo
outcome_measure: Cmax
Give the figure together with its unit, number first.

Record CC1(C)CC[C@H](Nc2ncc(C(F)(F)F)c(-c3c[nH]c4c(P(C)(C)=O)c(C#N)ccc34)n2)CN1 [SY-5609] , field Cmax: 50.7 ng/mL

* * *

# assay_system: CDK12/Cyclin K (Homo sapiens)
# Sequence (O75909 whole entry): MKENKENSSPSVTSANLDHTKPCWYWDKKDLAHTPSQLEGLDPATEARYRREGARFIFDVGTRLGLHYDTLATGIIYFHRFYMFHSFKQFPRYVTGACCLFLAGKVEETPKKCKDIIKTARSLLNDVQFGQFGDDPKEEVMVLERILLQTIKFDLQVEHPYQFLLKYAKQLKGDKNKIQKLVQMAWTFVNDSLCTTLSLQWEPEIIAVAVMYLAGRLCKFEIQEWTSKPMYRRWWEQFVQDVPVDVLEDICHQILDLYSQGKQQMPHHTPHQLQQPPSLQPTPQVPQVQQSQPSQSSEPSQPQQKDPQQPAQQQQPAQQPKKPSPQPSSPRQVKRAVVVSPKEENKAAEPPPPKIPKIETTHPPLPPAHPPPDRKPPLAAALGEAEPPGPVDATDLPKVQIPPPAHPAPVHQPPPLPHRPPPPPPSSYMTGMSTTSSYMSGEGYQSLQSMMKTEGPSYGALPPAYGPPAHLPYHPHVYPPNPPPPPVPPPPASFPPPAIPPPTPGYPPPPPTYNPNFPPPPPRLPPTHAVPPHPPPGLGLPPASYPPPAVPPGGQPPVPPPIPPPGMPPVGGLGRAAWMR
# Sequence (Q9NYV4 whole entry): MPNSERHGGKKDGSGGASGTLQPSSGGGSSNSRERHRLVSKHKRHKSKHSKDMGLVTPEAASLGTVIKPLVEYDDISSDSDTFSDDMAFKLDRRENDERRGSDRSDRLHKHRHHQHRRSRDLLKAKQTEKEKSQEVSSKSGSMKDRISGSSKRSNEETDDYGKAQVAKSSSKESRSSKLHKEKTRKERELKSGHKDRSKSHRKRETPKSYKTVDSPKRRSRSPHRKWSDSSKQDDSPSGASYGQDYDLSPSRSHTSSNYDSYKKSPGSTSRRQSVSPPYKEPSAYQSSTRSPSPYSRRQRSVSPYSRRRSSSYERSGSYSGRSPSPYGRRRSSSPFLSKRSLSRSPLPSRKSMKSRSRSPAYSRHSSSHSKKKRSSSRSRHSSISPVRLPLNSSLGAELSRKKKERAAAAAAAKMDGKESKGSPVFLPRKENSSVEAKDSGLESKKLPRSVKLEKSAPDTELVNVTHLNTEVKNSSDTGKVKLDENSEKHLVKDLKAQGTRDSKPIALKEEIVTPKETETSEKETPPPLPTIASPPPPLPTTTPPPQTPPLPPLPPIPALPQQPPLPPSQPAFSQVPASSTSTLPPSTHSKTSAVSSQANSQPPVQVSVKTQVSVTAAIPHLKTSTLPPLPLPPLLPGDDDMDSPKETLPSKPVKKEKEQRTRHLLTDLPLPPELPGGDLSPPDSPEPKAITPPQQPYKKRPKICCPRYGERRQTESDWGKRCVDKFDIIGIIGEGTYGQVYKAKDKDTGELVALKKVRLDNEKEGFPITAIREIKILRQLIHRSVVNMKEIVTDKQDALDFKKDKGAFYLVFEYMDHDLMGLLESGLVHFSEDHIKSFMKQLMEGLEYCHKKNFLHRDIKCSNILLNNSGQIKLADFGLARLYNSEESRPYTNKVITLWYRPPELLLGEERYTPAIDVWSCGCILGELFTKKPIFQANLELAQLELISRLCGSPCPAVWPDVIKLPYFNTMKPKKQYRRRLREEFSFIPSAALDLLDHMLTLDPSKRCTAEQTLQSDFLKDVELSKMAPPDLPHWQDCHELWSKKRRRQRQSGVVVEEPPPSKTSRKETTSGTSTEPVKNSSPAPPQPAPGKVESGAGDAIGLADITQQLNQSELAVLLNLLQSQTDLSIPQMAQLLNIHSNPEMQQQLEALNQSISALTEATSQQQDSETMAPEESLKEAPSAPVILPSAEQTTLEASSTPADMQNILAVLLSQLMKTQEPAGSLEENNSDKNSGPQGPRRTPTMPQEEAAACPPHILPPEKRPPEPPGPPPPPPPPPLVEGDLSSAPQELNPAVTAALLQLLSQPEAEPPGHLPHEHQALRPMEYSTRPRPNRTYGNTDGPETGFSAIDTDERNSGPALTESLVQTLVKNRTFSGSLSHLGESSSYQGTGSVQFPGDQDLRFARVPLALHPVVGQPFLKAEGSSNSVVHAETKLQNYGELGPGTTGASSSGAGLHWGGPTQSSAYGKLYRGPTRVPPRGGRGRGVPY
# procedure_summary: Inhibition of CDK12/cyclin K (unknown origin) using 5-FAM-labeled peptide as substrate in presence of ATP by mobility shift assay
# Assay type: protein-complex assay
outcome_measure: pIC50
Keep it numeric: pIC50 is minus log10 of the concentration in mol/L.

// worked examples, pIC50 included
> print(dat)
                                 mol.smiles  result.value
1  CC1(C)CC[C@H](Nc2ncc(C(F)(F)F)c(-c3c[nH]c4ccccc34)n2)CN1          7.02
2  FC(F)(F)c1cnc(N[C@H]2CCCNC2)nc1-c1c[nH]c2ccccc12          7.62
3  CS(=O)(=O)c1cccc2c(-c3nc(N[C@H]4CCCNC4)ncc3C(F)(F)F)c[nH]c12          7.82
4  CS(=O)(=O)c1c(C#N)ccc2c(-c3nc(N[C@H]4CCCNC4)ncc3C(F)(F)F)c[nH]c12          7.48
5  CC1(C)CC[C@H](Nc2ncc(C(F)(F)F)c(-c3c[nH]c4c(P(C)(C)=O)c(C#N)ccc34)n2)CN1          5.77

Note to self: pIC50 recorded for Cc1noc(C)c1-c1ccc2c(-c3nc(N[C@H]4CCCNC4)ncc3C(F)(F)F)c[nH]c2c1 was 6.95

* * *

# assay_system: Cyclin-dependent kinase 2/cyclin E1 (Homo sapiens, UniProt P24941)
# procedure_summary: Inhibition of CDK2/cyclin E1 (unknown origin) using 5-FAM-labeled peptide as substrate in presence of ATP by mobility shift assay
outcome_measure: pIC50
As a rule, pIC50 stands for the negative log10 of the concentration, concentration in M.

Example entries begin here.
> print(dat)
                                 mol.smiles  result.value
1  N#Cc1ccc2c(-c3nc(N[C@H]4CCCNC4)ncc3C(F)(F)F)c[nH]c2c1          6.46
2  CS(=O)(=O)c1c(C#N)ccc2c(-c3nc(N[C@H]4CCCNC4)ncc3C(F)(F)F)c[nH]c12          6.55
3  Clc1cnc(N[C@H]2CCCNC2)nc1-c1c[nH]c2ccccc12          6.99
4  Cc1noc(C)c1-c1ccc2c(-c3nc(N[C@H]4CCCNC4)ncc3C(F)(F)F)c[nH]c2n1.Cl          6.72

pIC50 for CC1(C)CNC[C@@H](Nc2ncc(C(F)(F)F)c(-c3c[nH]c4c(P(C)(C)=O)c(C#N)ccc34)n2)C1 is 6.11

pIC50 in this record for CCc1cnc(N[C@H]2CCCNC2)nc1-c1c[nH]c2c(S(C)(=O)=O)c(C#N)ccc12 : 5.79

CC1(C)CNC[C@@H](Nc2ncc(C(F)(F)F)c(-c3c[nH]c4ccccc34)n2)C1 has a reported pIC50 of 7.28

pIC50 for CS(=O)(=O)c1ccc2c(-c3nc(N[C@H]4CCCNC4)ncc3C(F)(F)F)c[nH]c2c1 is 6.52

Entry FC(F)(F)c1cnc(N[C@H]2CCCNC2)nc1-c1c[nH]c2ccccc12 — recorded pIC50 = 7.38

GET /value?item= CC1(C)CC[C@H](Nc2ncc(C(F)(F)F)c(-c3c[nH]c4ccccc34)n2)CN1 &field=pIC50 returns 6.89

The reported pIC50 of the molecule Cc1noc(C)c1-c1ccc2c(-c3nc(N[C@H]4CCCNC4)ncc3C(F)(F)F)c[nH]c2c1 was 6.34

The molecule listed as CP(C)(=O)c1cccc2c(-c3nc(N[C@H]4CCCNC4)ncc3C(F)(F)F)c[nH]c12 shows pIC50 equal to 6.38

Please fill in: pIC50 reported for CS(=O)(=O)c1cccc2c(-c3nc(N[C@H]4CCCNC4)ncc3C(F)(F)F)c[nH]c12 = 7.11

Entry under test: CCc1cnc(N[C@H]2CCCNC2)nc1-c1c[nH]c2ccccc12 . Its pIC50 was 6.03

* * *

# assay_system: Cyclin-dependent kinase 7/ cyclin H (Homo sapiens)
# Sequence (P51946 whole entry, the tested form may be a part): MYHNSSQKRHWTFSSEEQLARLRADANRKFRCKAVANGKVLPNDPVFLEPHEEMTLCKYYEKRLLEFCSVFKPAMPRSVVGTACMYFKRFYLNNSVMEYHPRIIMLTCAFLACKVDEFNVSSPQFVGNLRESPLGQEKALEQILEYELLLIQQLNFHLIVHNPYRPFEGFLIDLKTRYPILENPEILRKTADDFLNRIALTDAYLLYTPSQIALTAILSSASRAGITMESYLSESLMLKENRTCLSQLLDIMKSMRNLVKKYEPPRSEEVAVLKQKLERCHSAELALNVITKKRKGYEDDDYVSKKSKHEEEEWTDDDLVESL
# Sequence (P50613 whole entry, the tested form may be a part): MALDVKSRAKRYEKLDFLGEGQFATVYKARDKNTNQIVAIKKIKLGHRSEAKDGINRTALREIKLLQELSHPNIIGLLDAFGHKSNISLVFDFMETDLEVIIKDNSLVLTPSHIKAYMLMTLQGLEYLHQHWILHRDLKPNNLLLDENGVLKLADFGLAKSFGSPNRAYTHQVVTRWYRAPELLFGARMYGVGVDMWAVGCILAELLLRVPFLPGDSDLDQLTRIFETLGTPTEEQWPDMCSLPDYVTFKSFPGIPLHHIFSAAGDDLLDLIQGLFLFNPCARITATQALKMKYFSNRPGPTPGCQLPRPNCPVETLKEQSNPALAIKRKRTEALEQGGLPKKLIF
# procedure_summary: Binding affinity to full length CDK7 (1 to 346 residues) /N-terminal TEV cleavable 6His tagged full length cyclinH (1 to 323 residues) (unknown origin) expressed in baculovirus infected Sf9 cells by Surface plasmon resonance assay
In this section we review reported log10(Kd) values for a set of compounds.
// units: nM (pre-log); metric: Kd; scale: log10

Example results:
> print(dat)
                                 mol.smiles  result.value
1  CP(C)(=O)c1cccc2c(-c3nc(N[C@H]4CCCNC4)ncc3C(F)(F)F)c[nH]c12         -1.10
2  N#Cc1ccc2c(-c3nc(N[C@H]4CCCNC4)ncc3C(F)(F)F)c[nH]c2c1         -1.05
3  CC1(C)CNC[C@@H](Nc2ncc(C(F)(F)F)c(-c3c[nH]c4ccccc34)n2)C1         -0.68

Next compound, please.
Entry CS(=O)(=O)c1c(C#N)ccc2c(-c3nc(N[C@H]4CCCNC4)ncc3C(F)(F)F)c[nH]c12 under Cyclin-dependent kinase 7/ cyclin H (Homo sapiens) had log10(Kd) of -1.10
